Target: interaction between PD-1 and PD-L1 (Homo sapiens (Human))
Sequence (Q9NZQ7 19-238): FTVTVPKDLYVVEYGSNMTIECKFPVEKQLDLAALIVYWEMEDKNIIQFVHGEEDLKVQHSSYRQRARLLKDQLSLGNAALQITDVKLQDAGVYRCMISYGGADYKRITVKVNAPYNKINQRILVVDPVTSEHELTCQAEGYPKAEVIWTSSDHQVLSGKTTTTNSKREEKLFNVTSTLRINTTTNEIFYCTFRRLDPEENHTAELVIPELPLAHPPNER
Experiment: PD1-PDL1 HTRF binding activity test (Cisbio PD-1/PD-L1 binding assay kit)
Settings: read-out: PD1-PDL1 HTRF Binding Activity IC50
pIC50: −log10 of the molar value.
Assign class by pIC50: not lower than 9 means Condition met; lower than 9 means Condition not met.

* Cc1cc(C(=O)Nc2cccc(-c3cccc(NC(=O)c4cc(C)c(CN[C@@H]5CCOC[C@H]5O)cn4)c3C)c2C)ncc1CN[C@@H]1CCOC[C@H]1O | Condition met
* Cc1c(NC(=O)c2cc(C3CC3)c(CNCC3(O)CC3)cn2)cccc1-c1cccc(NC(=O)c2cc(C3CC3)c(CNCC3(O)CC3)cn2)c1C | Condition not met
* Cc1c(NC(=O)c2cc(C3CC3)c(CN3CCC(O)CC3)cn2)cccc1-c1cccc(NC(=O)c2cc(C3CC3)c(CN3CCC(O)CC3)cn2)c1C | Condition not met
* COc1cc(C(=O)Nc2cccc(-c3cccc(NC(=O)c4cc(OC)c(CN[C@H](CO)CC(=O)O)cn4)c3C)c2C)ncc1CN[C@H](CO)CC(=O)O | Condition met
